EXPERIMENT NOTES: Suspension stability at 25° C.
Format: physicochemical
MEASUREMENT CONDITIONS: 25 °C, aqueous with cosolvent or surfactant or cyclodextrin, thermodynamic from solid, 10 mg/mL, 0.5(w/w) MC(400 cP) and 2%(w/w) Vitamin E TPGS in water, 2 h
RECORDED METRIC: solubility at 2 h

• N#Cc1c(-c2cc(NC(=O)c3cc(F)cc(C(F)(F)F)c3)c3c(c2)C(=O)N[C@H]3c2cc(F)ccc2Cl)ccc2ncnn12 [Compound I-4] = 3950 µg/mL

----------
EXPERIMENT NOTES: Approximate solubility at 25° C. (visual observation)
Format: physicochemical
MEASUREMENT CONDITIONS: tetrahydrofuran, organic solvent or mixture, thermodynamic from solid, starting material for salt screening
RECORDED METRIC: Solubility

* N#Cc1c(-c2cc(NC(=O)c3cc(F)cc(C(F)(F)F)c3)c3c(c2)C(=O)N[C@H]3c2cc(F)ccc2Cl)ccc2ncnn12 | 33 to 64 mg/mL

----------
EXPERIMENT NOTES: Solubility study at 37° C. (buffer, water, bio-relevant media, MeOH/DCM)
Assay type: physicochemical
MEASUREMENT CONDITIONS: MeOH/DCM (1:2, v/v), 37 °C, organic solvent or mixture, thermodynamic from solid, read-out: solubility in MeOH/DCM (1:2, v/v)
RECORDED METRIC: Solubility

- N#Cc1c(-c2cc(NC(=O)c3cc(F)cc(C(F)(F)F)c3)c3c(c2)C(=O)N[C@H]3c2cc(F)ccc2Cl)ccc2ncnn12: > 145 mg/mL

----------
EXPERIMENT NOTES: Solubility study at 37° C. (buffer, water, bio-relevant media, MeOH/DCM)
Type: physicochemical
MEASUREMENT CONDITIONS: MeOH/DCM (1:2, v/v), 37 °C, organic solvent or mixture, thermodynamic from solid, MeOH/DCM (1:2, v/v), 2 hours
RECORDED METRIC: solubility at 2 h

- N#Cc1c(-c2cc(NC(=O)c3cc(F)cc(C(F)(F)F)c3)c3c(c2)C(=O)N[C@H]3c2cc(F)ccc2Cl)ccc2ncnn12: > 145 mg/mL

----------
EXPERIMENT NOTES: Approximate solubility at 25° C. (visual observation)
Format: physicochemical
MEASUREMENT CONDITIONS: methyl ethyl ketone, organic solvent or mixture, thermodynamic from solid, starting material for salt screening
Procedure: Max. volume of each solvent added was 1 mL. Approximate solubility was determined by visual observation.
RECORDED METRIC: Solubility

• N#Cc1c(-c2cc(NC(=O)c3cc(F)cc(C(F)(F)F)c3)c3c(c2)C(=O)N[C@H]3c2cc(F)ccc2Cl)ccc2ncnn12 [Compound I-1] = 12 to 17 mg/mL

----------
EXPERIMENT NOTES: Approximate solubility at 25° C. (visual observation)
Type: physicochemical
MEASUREMENT CONDITIONS: methyl ethyl ketone, organic solvent or mixture, thermodynamic from solid, polymorph screening batch
Description: Max. volume of each solvent added was 1 mL. Approximate solubility was determined by visual observation.
RECORDED METRIC: Solubility

* N#Cc1c(-c2cc(NC(=O)c3cc(F)cc(C(F)(F)F)c3)c3c(c2)C(=O)N[C@H]3c2cc(F)ccc2Cl)ccc2ncnn12 [Compound I-1] | 26 to 28 mg/mL

Cited source for all entries: patent US20260125374A1
